# ASSAY_PROCEDURE: AUC in monkey at 2 mg/kg, po
# STUDY_CONDITIONS: rhesus monkey, plasma
MEASURED_QUANTITY: AUC (µM·h)
Use µM·h as the unit, but write only the number.

Quick note, AUC for CC(C)(C)NC(=O)N[C@H](C(=O)N1C[C@H]2[C@@H]([C@H]1C(=O)NC(CC1CC1)C(=O)C(N)=O)C2(C)C)C(C)(C)C (stereo partly specified) landed at 0.05

----------
# key: entry, value: Selectivity ratio
# ASSAY_PROCEDURE: Selectivity for human neutrophil elastase (HNE) over HCV NS3 protease
Response field accepts a number only; no unit should be typed.

[[record]]
compound = "CC(C)(C)NC(=O)N[C@H](C(=O)N1C[C@H]2[C@@H]([C@H]1C(=O)NC(CC1CCC1)C(=O)C(N)=O)C2(C)C)C1CCCCC1 (stereo partly specified)"
measurement = 90

[[record]]
compound = "C=CCCC(NC(=O)[C@@H]1[C@@H]2[C@H](CN1C(=O)[C@@H](NC(=O)OC(C)(C)C)C1CCCCC1)C2(C)C)C(=O)C(N)=O (stereo partly specified)"
measurement = 2

[[record]]
compound = "CCCC(NC(=O)[C@@H]1[C@@H]2[C@H](CN1C(=O)[C@@H](NC(=O)OC(C)(C)C)C1CCCCC1)C2(C)C)C(=O)C(N)=O (stereo partly specified)"
measurement = 3


Quick note, Selectivity ratio for CC(C)(C)OC(=O)N[C@H](C(=O)N1C[C@H]2[C@@H](C1C(=O)NC(CC1CCO1)C(=O)C(N)=O)C2(C)C)C1CCCCC1 (stereo partly specified) landed at 140

Quick note, Selectivity ratio for CN(C(=O)N[C@H](C(=O)N1C[C@H]2[C@@H]([C@H]1C(=O)NC(CC1CCC1)C(=O)C(N)=O)C2(C)C)C(C)(C)C)C(C)(C)C (stereo partly specified) landed at 270

Quick note, Selectivity ratio for CC(C)(C)OC(=O)N[C@H](C(=O)N1C[C@H]2[C@@H]([C@H]1C(=O)NC(CC1CC1)C(=O)C(N)=O)C2(C)C)C1Cc2ccccc2C1 (stereo partly specified) landed at 49
